Reported growth inhibition values for the following molecules.
assay: NCI Yeast Anticancer Drug Screen. Data for the rad18 strain (AID 177); settings: S. cerevisiae rad18 mutant growth inhibition; at 1.2 µM; stronger effect = higher value
About 79,000 compounds went through this panel and 15% of them were active in at least one assay; those are over-represented in the sample as a whole.
Return type: number; implicit unit %.

As a guide, the following entries are already answered.
molecule	growth inhibition (%)
C[n+]1c(-c2ccc(/C=N/NC(=O)c3ccc(C(=O)N/N=C/c4ccc(-c5cn6ccccc6[n+]5C)cc4)cc3)cc2)cn2ccccc21	10
CC(=O)/C=C/c1cccc([N+](=O)[O-])c1	1
CC1=CC(=C(c2ccc(N)c(C)c2)c2ccc(N)c(C)c2)C=CC1=N	2
C/C(=N\OCC(O)CNCCSCc1ccccc1)c1ccccc1Cl (stereo not drawn)	12
O=[N+]([O-])c1ccc(/C=C\c2ccc3c(c2)OCO3)c([N+](=O)[O-])c1	-1

Which growth inhibition reading was recorded for the molecule CC(C(=O)N1C(=O)N(C(=O)C(C)C(O)c2ccccc2)C2CCCCC21)C(O)c1ccccc1 (stereo not drawn) ?
2
